Provenance of the data: PubChem BioAssay (Tox21)

# SYSTEM: Cytochrome P450 3A4 (Homo sapiens) (UniProt P08684)
# Sequence (P08684 whole entry, looked up): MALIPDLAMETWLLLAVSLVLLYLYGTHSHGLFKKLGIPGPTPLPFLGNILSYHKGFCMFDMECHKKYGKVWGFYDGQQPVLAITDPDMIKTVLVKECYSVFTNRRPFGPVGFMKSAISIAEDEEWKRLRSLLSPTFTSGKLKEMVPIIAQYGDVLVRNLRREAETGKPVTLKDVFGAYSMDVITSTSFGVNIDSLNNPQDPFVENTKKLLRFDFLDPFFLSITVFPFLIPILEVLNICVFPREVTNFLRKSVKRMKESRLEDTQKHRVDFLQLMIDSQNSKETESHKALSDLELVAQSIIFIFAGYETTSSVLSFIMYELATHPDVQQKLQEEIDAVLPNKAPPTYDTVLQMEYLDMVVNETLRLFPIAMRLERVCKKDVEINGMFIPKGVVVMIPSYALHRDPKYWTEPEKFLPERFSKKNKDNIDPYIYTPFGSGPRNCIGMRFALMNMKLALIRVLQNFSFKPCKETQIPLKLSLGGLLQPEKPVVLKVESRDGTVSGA
# TEST_SUMMARY: Cytochrome P450 Family 3 Subfamily A Member 4 (CYP3A4) small molecule antagonists: luciferase reporter qHTS assay (AID 1671201); also: nearly all actives have a fitted effect of over 50% in size
# CONDITION_DETAILS: P450-Glo CYP3A4 enzyme, luciferin luminescence, 1 h; series mostly up to 115 µM
Inconclusive results are not listed. Activity calls are given as the source filed them. Calls follow the shape of the dose curve; as a rule, active = well fitted inhibition curve with a large enough effect in the repeat runs; inconclusive = weak or mixed curves; inactive = no such curve, though single readings can be large or run the other way.
Choose the fitting class; nothing outside label 1 (active), label 0 (inactive) is accepted.

Exercise: In this assay, the call recorded for CN/C(=N\[N+](=O)[O-])NCc1cnc(Cl)s1 was what?
Solution: label 0

Exercise: In this assay, the call recorded for CC(Cl)CCl (stereo unspecified) was what?
Solution: label 0

Exercise: In this assay, the call recorded for CN(C)c1ccc(N)cc1 was what?
Solution: label 1

Exercise: In this assay, the call recorded for COC(=O)N(OC)c1ccccc1COc1ccn(-c2ccc(Cl)cc2)n1 was what?
Solution: label 0

Exercise: In this assay, the call recorded for O=C(N[C@@H]1N=C(c2ccccc2F)c2cccc3c2N(CC3)C1=O)c1cc2ccccc2[nH]1 was what?
Solution: label 0

Exercise: In this assay, the call recorded for CCCCON=O was what?
Solution: label 0

Exercise: In this assay, the call recorded for O=C(CCCCl)c1ccc(F)cc1 was what?
Solution: label 0

Exercise: In this assay, the call recorded for BrCC(Br)(Br)Br was what?
Solution: label 0

Exercise: In this assay, the call recorded for CSSC was what?
Solution: label 0

Exercise: In this assay, the call recorded for C=Cc1cccc(CCl)c1 was what?
Solution: label 0

Exercise: In this assay, the call recorded for N#CC(C#N)=NNc1cccc(Cl)c1 was what?
Solution: label 1

Exercise: In this assay, the call recorded for CC1(C)C(C=C(Cl)Cl)C1C(=O)OC(C#N)c1ccc(F)c(Oc2ccccc2)c1 (stereo unspecified) was what?
Solution: label 0

Exercise: In this assay, the call recorded for CC(=O)[O][Sn]([c]1ccccc1)([c]1ccccc1)[c]1ccccc1 was what?
Solution: label 1

Exercise: In this assay, the call recorded for CCO/N=C(\CC)C1=C(O)CC(c2c(C)cc(C)cc2C)CC1=O (stereo unspecified) was what?
Solution: label 0

Exercise: In this assay, the call recorded for CC1=C2C[C@H]3[C@@H](CC=C4C[C@@H](O)CC[C@@]43C)[C@@H]2CC[C@]12O[C@@H]1C[C@H](C)CN[C@H]1[C@H]2C was what?
Solution: label 0

Exercise: In this assay, the call recorded for CCCCC(CC)COC(=O)OOC(C)(C)C (stereo unspecified) was what?
Solution: label 0

Exercise: In this assay, the call recorded for [O-][Cl+3]([O-])([O-])O was what?
Solution: label 0

Exercise: In this assay, the call recorded for CC1CN1 (stereo unspecified) was what?
Solution: label 0

Exercise: In this assay, the call recorded for CCCCN(CCCC)C(=S)[S-].CCCCN(CCCC)C(=S)[S-].[Ni+2] was what?
Solution: label 0

Exercise: In this assay, the call recorded for O=c1c2ccccc2c(=O)c2c1cc(Cl)c1[nH]c3c([nH]c12)c(Cl)cc1c(=O)c2ccccc2c(=O)c13 was what?
Solution: label 0

Exercise: In this assay, the call recorded for C=CC(=O)[O][Sn]([CH2]CCC)([CH2]CCC)[CH2]CCC was what?
Solution: label 1

Exercise: In this assay, the call recorded for COc1nc(C)nc(NC(=O)NS(=O)(=O)c2ccccc2Cl)n1 was what?
Solution: label 0

Exercise: In this assay, the call recorded for CCC(C)Br (stereo unspecified) was what?
Solution: label 0

Exercise: In this assay, the call recorded for c1ccc2c(c1)cc1ccc3cccc4ccc2c1c34 was what?
Solution: label 0

Exercise: In this assay, the call recorded for COCCC#N was what?
Solution: label 0

Exercise: In this assay, the call recorded for ClC1(Cl)C2(Cl)C3(Cl)C4(Cl)C(Cl)(Cl)C5(Cl)C3(Cl)C1(Cl)C5(Cl)C24Cl (stereo unspecified) was what?
Solution: label 0

Exercise: In this assay, the call recorded for O=[N+]([O-])c1cc(C(F)(F)F)c(Cl)c([N+](=O)[O-])c1Nc1ncc(C(F)(F)F)cc1Cl was what?
Solution: label 1

Exercise: In this assay, the call recorded for CCOC(=O)CCN(SN(C)C(=O)Oc1cccc2c1OC(C)(C)C2)C(C)C was what?
Solution: label 1

Exercise: In this assay, the call recorded for N#Cc1c[nH]cc1-c1cccc2c1OC(F)(F)O2 was what?
Solution: label 0

Exercise: In this assay, the call recorded for O=NN(CCO)CCO was what?
Solution: label 0

Exercise: In this assay, the call recorded for COP(=S)(OC)Oc1ccc([N+](=O)[O-])c(C)c1 was what?
Solution: label 1

* * *

# SYSTEM: Thyrotropin-releasing hormone receptor (Homo sapiens)
# TEST_SUMMARY: qHTS assay to identify small molecule agonists of the thyrotropin-releasing hormone receptor (TRHR) signaling pathway (AID 1346891);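 also: HEK293 cells expressing TRHR with calcium dye readout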
# CONDITION_DETAILS: TRHR-HEK293 calcium fluorescence, agonist mode; series mostly up to 57.6 µM
Activity calls are given as the source filed them. Calls come from the whole dose curve.
OBSERVABLE: outcome

* [O-][Cl+3]([O-])([O-])O | inactive
* CCC(C)Nc1c([N+](=O)[O-])cc(C(C)(C)C)cc1[N+](=O)[O-] (stereo unspecified) | inactive
* CCCCC(CC)COC(=O)c1ccccc1C(=O)OCC(CC)CCCC (stereo unspecified) | inactive
* CCCCON=O | inactive
* ClC1=C(Cl)[C@]2(Cl)[C@@H]3[C@H]4C[C@H]([C@@H]5O[C@H]45)[C@@H]3[C@@]1(Cl)C2(Cl)Cl | inactive

Exercise: Could you share which outcome value was measured for COC(=O)/C=C(\C)OP(=O)(OC)OC ?
Solution: inactive

* * *

# SYSTEM: Aryl hydrocarbon receptor (Homo sapiens) (UniProt P35869)
# Sequence (P35869 whole entry, looked up): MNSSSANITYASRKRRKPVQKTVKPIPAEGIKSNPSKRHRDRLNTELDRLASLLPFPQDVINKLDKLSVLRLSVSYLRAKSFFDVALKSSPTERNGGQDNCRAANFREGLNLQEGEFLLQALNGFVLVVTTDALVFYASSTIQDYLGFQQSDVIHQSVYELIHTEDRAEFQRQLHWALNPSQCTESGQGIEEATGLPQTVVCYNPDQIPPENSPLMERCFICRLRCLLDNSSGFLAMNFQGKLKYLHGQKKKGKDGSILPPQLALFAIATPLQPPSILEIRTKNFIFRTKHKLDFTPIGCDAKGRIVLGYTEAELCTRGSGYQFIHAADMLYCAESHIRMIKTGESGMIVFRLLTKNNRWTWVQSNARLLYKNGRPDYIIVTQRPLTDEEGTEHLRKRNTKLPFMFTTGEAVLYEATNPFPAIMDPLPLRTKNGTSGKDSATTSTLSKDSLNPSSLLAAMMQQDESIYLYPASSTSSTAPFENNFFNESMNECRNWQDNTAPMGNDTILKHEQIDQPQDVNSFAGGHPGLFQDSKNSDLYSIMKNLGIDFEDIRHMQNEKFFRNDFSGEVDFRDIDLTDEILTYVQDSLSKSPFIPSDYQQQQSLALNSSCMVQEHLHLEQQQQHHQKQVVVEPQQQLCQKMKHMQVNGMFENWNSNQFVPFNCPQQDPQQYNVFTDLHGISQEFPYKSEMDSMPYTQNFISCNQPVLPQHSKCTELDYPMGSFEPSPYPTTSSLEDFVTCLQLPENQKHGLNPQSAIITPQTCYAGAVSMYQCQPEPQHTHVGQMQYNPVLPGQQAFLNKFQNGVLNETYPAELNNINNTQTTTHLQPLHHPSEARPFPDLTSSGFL
# TEST_SUMMARY: qHTS assay to identify small molecule that activate the aryl hydrocarbon receptor (AhR) signaling pathway (AID 743085);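 also: HG2L7.5c1 human HepG2 liver cells with stably integrated DRE-driven firefly reporter; nearly all actives have a fitted effect of over 15% in size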
# CONDITION_DETAILS: HepG2 AhR-luc (HG2L7.5c1), luciferase, 24 h; series mostly up to 70.3 µM
Records with an inconclusive call do not appear. The source made the active and inactive calls. Calls come from the whole dose curve; as a rule, active = well fitted activation curve with a large enough effect in the repeat runs; inconclusive = weak or mixed curves; inactive = no such curve, though single readings can be large or run the other way.
OBSERVABLE: outcome

As a guide, the following entries are already answered.
* BrCCCBr | inactive
* O=[N+]([O-])[O-].[Tl+] | inactive
* CCC1(CC)C(=O)N=C(O)NC1=O | inactive
* COc1ccc2c(c1OC)C(=O)O[C@@H]2[C@H]1c2cc3c(cc2CCN1C)OCO3 | inactive

In the following, a different compound is considered.
Exercise: Could you share which outcome value was measured for COc1nc(C)nc(NC(=O)NS(=O)(=O)c2ccccc2Cl)n1 ?
Solution: inactive

* * *

# SYSTEM: Estrogen receptor (Homo sapiens) (UniProt P03372)
# Sequence (P03372 whole entry, looked up): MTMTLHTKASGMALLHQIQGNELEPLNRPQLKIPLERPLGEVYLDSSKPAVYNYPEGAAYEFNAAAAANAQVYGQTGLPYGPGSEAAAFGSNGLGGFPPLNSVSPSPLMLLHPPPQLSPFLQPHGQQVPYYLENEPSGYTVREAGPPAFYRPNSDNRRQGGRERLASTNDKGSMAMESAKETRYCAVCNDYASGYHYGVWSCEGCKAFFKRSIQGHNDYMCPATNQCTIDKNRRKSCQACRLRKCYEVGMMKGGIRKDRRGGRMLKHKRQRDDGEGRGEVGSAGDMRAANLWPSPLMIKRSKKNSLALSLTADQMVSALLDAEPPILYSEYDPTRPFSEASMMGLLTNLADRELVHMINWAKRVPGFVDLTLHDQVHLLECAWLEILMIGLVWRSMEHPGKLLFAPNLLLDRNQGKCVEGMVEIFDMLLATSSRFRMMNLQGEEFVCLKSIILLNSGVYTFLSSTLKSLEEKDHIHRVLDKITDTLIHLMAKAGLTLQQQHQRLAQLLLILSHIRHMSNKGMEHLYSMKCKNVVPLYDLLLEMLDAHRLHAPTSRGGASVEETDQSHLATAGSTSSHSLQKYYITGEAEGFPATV
# TEST_SUMMARY: qHTS assay to identify small molecule antagonists of the estrogen receptor alpha (ER-alpha) signaling pathway using the BG1 cell line in the presence of 0.1 nM 17-beta-estradiol (AID 1259244); also: nearly all actives have a fitted effect of over 50% in size
# CONDITION_DETAILS: VM7Luc4E2 (BG1) ERE-luciferase, antagonist mode, 0.1 nM E2, 22 h; series mostly up to 92.4 µM
Records with an inconclusive call do not appear. The source made the active and inactive calls. Calls follow the shape of the dose curve; as a rule, active = well fitted inhibition curve with a large enough effect in the repeat runs; inconclusive = weak or mixed curves; inactive = no such curve, though single readings can be large or run the other way.
OBSERVABLE: outcome

As a guide, the following entries are already answered.
* Nc1nc(N)nc(Cl)n1 | inactive
* Nc1ccc(Cl)cc1C(=O)c1ccccc1F | inactive
* CC(C)C(Nc1ccc(C(F)(F)F)cc1Cl)C(=O)OC(C#N)c1cccc(Oc2ccccc2)c1 (centres undefined) | inactive
* NC1CCC(CC2CCC(N)CC2)CC1 (centres undefined) | inactive
* CC(=O)[O][Sn]([c]1ccccc1)([c]1ccccc1)[c]1ccccc1 | inactive
* COC(=O)/C=C(\C)OP(=O)(OC)OC | inactive

Exercise: Could you share which outcome value was measured for CC(=O)C(Cl)C(=O)N(C)C (centres undefined) ?
Solution: inactive

Exercise: Could you share which outcome value was measured for O.O.O.O=C([O-])[C@H]([O-])[C@@H]([O-])C(=O)[O-].O=C([O-])[C@H]([O-])[C@@H]([O-])C(=O)[O-].[K+].[K+].[Sb+3].[Sb+3] ?
Solution: inactive

Exercise: Could you share which outcome value was measured for ClC1(Cl)C2(Cl)C3(Cl)C4(Cl)C(Cl)(Cl)C5(Cl)C3(Cl)C1(Cl)C5(Cl)C24Cl (centres undefined) ?
Solution: inactive

* * *

# TEST_SUMMARY: qHTS assay to identify small molecule agonists of the peroxisome proliferator-activated receptor delta (PPARd) signaling pathway - cell viability counter screen (AID 743211); also: nearly all actives have a fitted effect of over 55% in size
# CONDITION_DETAILS: PPARd-bla HEK293H viability, CellTiter-Glo luminescence, 17 h; series mostly up to 62.6 µM
Results filed as inconclusive are left out. The source made the active and inactive calls. Calls follow the shape of the dose curve; as a rule, active = well fitted cell-killing curve with a large enough effect in the repeat runs; inconclusive = weak or mixed curves; inactive = no such curve, though single readings can be large or run the other way.
Choose the fitting class; nothing outside active, inactive is accepted.

Exercise: In this assay, the call recorded for CC(=O)[O][Sn]([c]1ccccc1)([c]1ccccc1)[c]1ccccc1 was what?
Solution: active

Exercise: In this assay, the call recorded for COCCC#N was what?
Solution: inactive

Exercise: In this assay, the call recorded for Oc1cc(Cl)cc(Cl)c1 was what?
Solution: inactive

Exercise: In this assay, the call recorded for O=P(Cl)(Cl)Cl was what?
Solution: inactive
